Just for reference, patent US10821151B2 is where these values come from.

Assay: MTS cell viability assay
Format: cell-based
Conditions: human, human PBMCs; 3 days, peptide alone or with diluted anti-HIV antiserum, 1 nM to 1 μM
Positions of bridges follow the written chain, without caps; N, C: chain ends. Chains are numbered I, II in the order given. No end group written: not given here.
measurementKind: viability at 72 h (%)
Supply the numeric figure in %, leaving out any unit text.

## Input Please look up its viability at 72 h: I: NPSHPLSGGGGSKK-NH2 / II: NPSHPLSGGGGSK / III: NPSHPLSGGGGS / IV: NPSHPLSGGGGS (amide I:13-IV:C, I:14-II:C, II:13-III:C) [SVH1C, [NPSHPLSGGGGS]4K3-NH2]
## Output 100
